- Test system: HeLa cells
- Run Description: MTS cell viability of HeLa cells treated with anticancer drug with or without AS-7 (48 hours)
- Format: cell-based, human
- Experimental Conditions: Homo sapiens, HeLa, 48 h, in the absence of AS-7; 48 hours; MTS; read-out: IC50 of carfilzomib (loss of HeLa cell viability)
Readout: IC50

Reported IC50 ( CC(C)C[C@H](NC(=O)[C@H](CCc1ccccc1)NC(=O)CN1CCOCC1)C(=O)N[C@@H](Cc1ccccc1)C(=O)N[C@@H](CC(C)C)C(=O)[C@@]1(C)CO1 [carfilzomib] ) = ~8.5 nM

* * *

- System: Melanoma A2620 cells
- Run Description: Crystal violet cell viability of melanoma A2620 cells, bortezomib with or without AS-7 (72 hours)
- Assay type: cell-based, human
- Experimental Conditions: Homo sapiens, 72 h, in the absence of AS-7, 72 hours, read-out: IC50 of bortezomib (loss of cell viability)
Readout: IC50

Reported IC50 ( "CC(C)C[C@H](NC(=O)[C@H](Cc1ccccc1)NC(=O)c1cnccn1)B(O)O" ) = ~7.3 nM
